target desc: HPK1 (Homo sapiens)
Sequence (Q92918 whole entry, looked up): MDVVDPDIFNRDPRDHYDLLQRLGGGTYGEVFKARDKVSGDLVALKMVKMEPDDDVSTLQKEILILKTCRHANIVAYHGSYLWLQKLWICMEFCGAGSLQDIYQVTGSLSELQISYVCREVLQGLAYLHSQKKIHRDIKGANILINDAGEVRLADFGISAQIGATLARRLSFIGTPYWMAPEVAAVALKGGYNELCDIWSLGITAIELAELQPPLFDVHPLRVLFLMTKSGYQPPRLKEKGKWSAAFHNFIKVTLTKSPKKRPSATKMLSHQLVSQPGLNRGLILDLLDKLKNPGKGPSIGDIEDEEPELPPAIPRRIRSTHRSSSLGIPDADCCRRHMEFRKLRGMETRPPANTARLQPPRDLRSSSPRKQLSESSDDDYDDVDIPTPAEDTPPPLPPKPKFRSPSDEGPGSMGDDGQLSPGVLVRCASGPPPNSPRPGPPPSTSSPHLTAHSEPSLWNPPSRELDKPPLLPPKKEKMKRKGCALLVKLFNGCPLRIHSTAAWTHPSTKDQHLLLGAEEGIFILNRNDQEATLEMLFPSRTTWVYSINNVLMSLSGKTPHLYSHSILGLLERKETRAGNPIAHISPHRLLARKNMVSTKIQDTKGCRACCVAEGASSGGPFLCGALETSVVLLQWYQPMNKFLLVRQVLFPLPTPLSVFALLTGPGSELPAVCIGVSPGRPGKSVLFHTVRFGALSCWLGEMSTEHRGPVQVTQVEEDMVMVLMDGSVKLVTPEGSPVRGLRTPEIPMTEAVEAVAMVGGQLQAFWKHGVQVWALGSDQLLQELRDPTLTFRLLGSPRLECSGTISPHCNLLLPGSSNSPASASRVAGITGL
assay method text: HPK1 Lantha Binding Assay ("Lanth")
conditions used: Table B1-1, read-out: HPK1 Ki (μM) (Lanth)
readout kind: Ki (µM)

Field: example entries. Status: answers known.
compound	unit label	Ki
Cc1ccncc1-c1cc2cc(NC(=O)[C@H]3C[C@]34CCN(S(C)(=O)=O)C4)ncc2c(N)n1 (racemic)	µM	0.00078
Cc1c(-c2cc3cc(NC(=O)[C@@H]4C[C@@H]4F)ncc3c(N)n2)cnn1C (racemic)	µM	0.00156

1: CNC(=O)c1cncc(-c2cc3cc(NC(=O)[C@@H]4C[C@@H]4F)ncc3c(N)n2)c1C (racemic)
2: Cc1ccncc1-c1nc(N)c2cnc(NC(=O)C3CC3)cc2c1C1=CC(O)CC1 (racemic)
3: CNC(=O)Cn1cc(Nc2cc3cc(-c4cnccc4C)nc(N)c3cn2)cn1
4: Cc1ccncc1-c1cc2cc(NC(=O)[C@H]3C[C@@H]3C(=O)N(C)C)ncc2c(N)n1 (racemic)
Rank entries according to their Ki, from the largest number down. Reply: labels, ordered per the request.
1, 4, 3, 2
(1: 0.0586 µM, 4: 0.032 µM, 3: 0.0025 µM, 2: 0.00099 µM)
